# assay target: T1, human GIP receptor (glucose-dependent insulinotropic peptide receptor, GIPR) (human, UniProt P48546 22-466)
# T1 sequence (looked up): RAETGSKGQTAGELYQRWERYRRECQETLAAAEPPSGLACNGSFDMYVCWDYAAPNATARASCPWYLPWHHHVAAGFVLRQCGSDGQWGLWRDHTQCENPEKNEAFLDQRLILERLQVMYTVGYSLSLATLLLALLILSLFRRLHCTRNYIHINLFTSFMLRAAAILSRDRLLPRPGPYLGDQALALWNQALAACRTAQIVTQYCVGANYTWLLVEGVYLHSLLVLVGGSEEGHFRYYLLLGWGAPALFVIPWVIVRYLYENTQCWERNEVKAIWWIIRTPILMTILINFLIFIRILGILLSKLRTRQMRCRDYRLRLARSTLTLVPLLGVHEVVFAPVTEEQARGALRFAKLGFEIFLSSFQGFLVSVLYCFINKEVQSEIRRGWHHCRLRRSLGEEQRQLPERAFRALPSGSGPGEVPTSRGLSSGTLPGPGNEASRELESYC
# run description: cell-based or functional assay
Non-standard residues stand in square brackets, D forms with d. No end group written: not given here. Aib = CC(C)(N)C(=O)O
// reported EC50(pM), cell agonistic activity (cAMP, HTRF) per item
Give just the number in pM; leave the unit off.

>  <binder>
Y[Aib]EGTFISDYSIALDRIHQQDFVKWLLAQRG (also: long-acting conjugating component, site and structure not given here) [Peptide 13 (long-acting conjugate of GIP analog, Seq ID. 13)]

>  <numeric result>
5.61

$$$$

Then there is this binder:
Output measured EC50(pM), cell agonistic activity (cAMP, HTRF) for this item: Y[Aib]EGTFISDYSIALDELHQKDFVNWLLAQRG (also: long-acting conjugating component, site and structure not given here) [Peptide 6 (long-acting conjugate of GIP analog, Seq ID. 6)]
32.2
